Tested on: axenic amastigotes of L. donovani, strain MHOM-ET-67/L82
assay_summary: In vitro activity against L. donovani axenic amastigotes, serial drug dilution assay
Type: cell-based, Leishmania donovani
test_conditions: Leishmania donovani, L. donovani axenic amastigotes; read-out: L. don. axen. IC50
experimental_endpoint: pIC50
Give bare numbers, as −log10 of the molar value.

// solved cases for pIC50 follow
- compound: "CO[C@H]1/C=C/O[C@@]2(C)Oc3c(C)c(O)c4c(O)c(c5c(nc6cc(C)ccn65)c4c3C2=O)NC(=O)/C(C)=C\\C=C\\[C@H](C)[C@H](O)[C@@H](C)[C@@H](O)[C@@H](C)[C@H](OC(C)=O)[C@@H]1C"
  reported_measurement: 4.82
- compound: "CO[C@H]1/C=C/O[C@@]2(C)Oc3c(C)c(O)c4c(c3C2=O)C2=NC3(CCN(CC(C)C)CC3)NC2=C(NC(=O)/C(C)=C\\C=C\\[C@H](C)[C@H](O)[C@@H](C)[C@@H](O)[C@@H](C)[C@H](OC(C)=O)[C@@H]1C)C4=O"
  reported_measurement: 4.25

The following compounds each have a reported value; give each one's pIC50.
1. C[C@H]1c2cccc(O)c2C(=O)C2=C(O)[C@]3(O)C(=O)C(C(N)=O)=C(O)[C@@H](N(C)C)[C@@H]3[C@@H](O)[C@@H]21
2. CCN(CC)CCCCCCNc1cc(OC)cc2c(C)ccnc12
3. CC(=O)[C@H]1CC[C@H]2[C@@H]3CC[C@H]4C[C@](C)(O)CC[C@]4(C)[C@H]3CC[C@]12C

Output:
4.62
4.86
4.37

Input: Dear colleague, I am looking for the recorded pIC50 of the following compound: COc1cc(NC(C)CCCN)c2ncccc2c1 (stereo not shown)
Output: 4.31

====

Please respond with reported selectivity ratio at 96 h for every item in the list.
Tested on: L. donovani strain MHOM-ET-67/L82 amastigotes
assay_summary: Activity against Leishmania donovani intracellular amastigotes in mouse peritoneal macrophages
test_conditions: mouse, mouse peritoneal macrophages versus L. donovani amastigotes, Selectivity index: IC50 Cytotoxicity macrophages/ IC50 L. donovani, axenic or intracellular IC50 not specified
Structures can show the parent of a compound that is named as a salt.
One number for each entry.

- compound: "Cc1cc(C2CCCCC2)n(O)c(=O)c1 [Ciclopirox olamine]"
  tested_on: "L. donovani strain MHOM-ET-67/L82 amastigotes"
  reported_measurement: 9

In the following, a different compound is considered.
Input: For the compound CO[C@H]1/C=C/O[C@@]2(C)Oc3c(C)c(O)c4c(O)c(cc(O)c4c3C2=O)NC(=O)/C(C)=C\C=C\[C@H](C)[C@H](O)[C@@H](C)[C@@H](O)[C@@H](C)[C@H](OC(C)=O)[C@@H]1C [Rifamycin SV (Sodium salt), Rifamycin SV] , what selectivity ratio at 96 h is on record?
Output: 28

====

Answer each item with its documented pIC50.
Test system: intracellular amastigotes of L. donovani strain MHOM-ET-67/L82
assay_summary: Activity against Leishmania donovani intracellular amastigotes in mouse peritoneal macrophages
test_conditions: Leishmania donovani, Peritoneal macrophage, in Mus musculus, 96 h, read-out: IC50 L. don. intracell
pIC50: −log10 of the molar value. Counter-ions that a name gives are not always drawn.

The examples below pair each entry with its known result.
- compound: "O=C(O)COCCN1CCN(C(c2ccccc2)c2ccc(Cl)cc2)CC1 (centres unmarked) [Cetirizine (Hydrochloride), Cetirizine]"
  pIC50: "< 4.15"
- compound: "NC(=O)c1cnccn1 [Pyrazinamide]"
  pIC50: "< 3.61"
- compound: "NNC(=O)c1ccncc1 [Isoniazide]"
  pIC50: "< 3.66"

// for each compound in input: emit pIC50
1. CN1CCC(=C2c3ccccc3CCc3sccc32)CC1
2. Cc1c(C)c2c(c(C)c1O)CCC(C)(COc1ccc(CC3SC(=O)NC3=O)cc1)O2 (centres unmarked)

Output:
< 4.47
< 4.17

Values were extracted from paper PMC4535766.
